Where these numbers come from: BindingDB's records for patent US11185100

Biological target: G-protein coupled receptors family 3 profile domain-containing protein (Felis catus)
Test: Activation of T1R1/T1R3 Receptor by Nucleotide Derivatives (alanine)
Sequence (A0ABI7Z2I4 1-770): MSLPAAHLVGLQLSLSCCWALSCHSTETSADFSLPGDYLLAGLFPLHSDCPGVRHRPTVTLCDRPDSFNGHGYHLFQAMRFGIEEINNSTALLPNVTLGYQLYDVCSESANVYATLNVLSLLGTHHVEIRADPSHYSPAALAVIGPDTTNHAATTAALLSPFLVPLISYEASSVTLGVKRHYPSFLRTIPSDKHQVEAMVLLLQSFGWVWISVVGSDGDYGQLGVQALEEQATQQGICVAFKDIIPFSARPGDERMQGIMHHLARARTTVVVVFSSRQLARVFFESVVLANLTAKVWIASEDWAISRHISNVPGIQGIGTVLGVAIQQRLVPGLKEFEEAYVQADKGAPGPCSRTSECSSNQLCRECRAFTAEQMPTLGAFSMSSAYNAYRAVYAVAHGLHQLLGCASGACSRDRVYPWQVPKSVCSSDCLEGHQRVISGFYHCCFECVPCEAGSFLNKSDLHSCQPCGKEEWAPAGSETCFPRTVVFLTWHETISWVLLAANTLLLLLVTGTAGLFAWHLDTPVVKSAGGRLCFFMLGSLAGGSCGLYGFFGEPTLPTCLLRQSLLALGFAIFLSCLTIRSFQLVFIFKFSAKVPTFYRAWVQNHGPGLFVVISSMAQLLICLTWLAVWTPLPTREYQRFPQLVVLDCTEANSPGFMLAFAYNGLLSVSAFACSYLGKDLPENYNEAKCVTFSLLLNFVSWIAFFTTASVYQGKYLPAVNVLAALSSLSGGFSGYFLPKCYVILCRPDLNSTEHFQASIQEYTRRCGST
pEC50: −log10 of the molar value.
Property measured: pEC50

> print(dat)
                                   molecule                             tested.system  result
1  CC1(O)[C@@](C)(COP(O)(O)=S)O[C@@](C)(n2cnc3c(N)ncnc32)[C@@]1(C)O (some centres not stated)  G-protein coupled receptors family 3 profile domain-containing protein (Felis catus)    4.22
2  CC1(O)[C@](C)(n2cnc3c(N)ncnc32)O[C@](C)(COP(O)(O)=S)[C@]1(C)O (some centres not stated)  G-protein coupled receptors family 3 profile domain-containing protein (Felis catus)    4.22

* * *

Biological target: G-protein coupled receptors family 3 profile domain-containing protein (Felis catus, UniProt A0ABI7Z2I4)
Assay: Activation of T1R1/T1R3 Receptor by Nucleotide Derivatives
pEC50: −log10 of the molar value.
Property measured: pEC50

> print(dat)
                               entry.smiles  property.measured  result
1  Nc1ncnc2c1ncn2[C@@H]1O[C@H](COP(=O)(O)O)[C@@H](OP(=O)(O)O)[C@H]1O              pEC50  < 4.52
